Assay Info: Mouse liver microsome stability
Assay type: in vitro ADME
Test Conditions: liver microsomes; mouse hepatic microsomes; read-out: In vitro CLint
Description: Kinetic solubility, parallel artificial membrane permeability assay (PAMPA) permeability, and stability in the mouse liver microsome assay were performed by BioDuro (Shanghai, China) according to standard protocols.
Recorded Metric: microsomal CLint (µL/min/mg)

| Structure Notation | Measured |
| --- | --- |
| COc1ccc2nccc(NC(=O)C3CCN(CCc4ccc(C(F)(F)F)cc4)CC3)c2n1 | 267 |

* * *

Assay Info: In vivo mouse pharmacokinetics
Test Conditions: female, mouse, plasma, sc; CD-1 mice, s.c. 25 mg/kg; average (SD); read-out: AUC s.c.

| Structure Notation | AUC |
| --- | --- |
| COc1ccc2nccc(NC(=O)C3CCN(CCc4ccc(C(F)(F)F)cc4)CC3)c2n1 | 1170 ng·h/mL |

* * *

Assay Info: Mouse liver microsome stability
Assay type: in vitro ADME
Test Conditions: liver microsomes; mouse hepatic microsomes, scaled

| Structure Notation | CLint scaled |
| --- | --- |
| COc1ccc2nccc(NC(=O)C3CCN(CCc4ccc(C(F)(F)F)cc4)CC3)c2n1 | 1050 mL/min/kg |

* * *

Assay Info: In vivo mouse pharmacokinetics
Test Conditions: female, mouse, plasma, po; CD-1 mice, p.o. 25 mg/kg vs i.v. 5 mg/kg; read-out: p.o. bioavailability

| Structure Notation | Unit Descriptor | bioavailability |
| --- | --- | --- |
| COc1ccc2nccc(NC(=O)C3CCN(CCc4ccc(C(F)(F)F)cc4)CC3)c2n1 | % | 0.15 |

* * *

Assay Info: In vivo mouse pharmacokinetics
Test Conditions: female, mouse, plasma, iv; CD-1 mice, i.v. 5 mg/kg; average (SD)
Method: All animal experiments were approved by the Center for Discovery and Innovation, Institutional Animal Care and Use Committee, and were conducted in compliance with their guidelines. […] Liquid chromatography-tandem mass spectrometry (LC-MS/MS) analysis was performed on a Sciex Applied Biosystems Qtrap 6500+ triple-quadrupole mass spectrometer coupled to a Shimadzu Nexera 2 high-pressure liquid chromatography (HPLC) system to quantify each drug in plasma. […]
Recorded Metric: k el (s⁻¹)

| Structure Notation | Unit Descriptor | Measured |
| --- | --- | --- |
| COc1ccc2nccc(NC(=O)C3CCN(CCc4ccc(C(F)(F)F)cc4)CC3)c2n1 | s⁻¹ | 0.000192 |

* * *

// M. abscessus subsp. abscessus M404 MIC records

| Structure Notation | Unit Descriptor | MIC |
| --- | --- | --- |
| CCNC(=O)Nc1nc2cc(-c3cnc(C(C)(C)O)nc3)c(F)c([C@H]3CCCO3)c2[nH]1 | µM | 1.5 |
| COc1ccc2nccc(NC(=O)C3CCN(CCc4ccc(Cl)cc4)CC3)c2n1 | µM | 6.3 |
| CC[C@H]1OC(=O)[C@H](C)[C@@H](O[C@H]2C[C@@](C)(OC)[C@@H](O)[C@H](C)O2)[C@H](C)[C@@H](O[C@@H]2O[C@H](C)C[C@H](N(C)C)[C@H]2O)[C@](C)(OC)C[C@@H](C)C(=O)[C@H](C)[C@@H](O)[C@]1(C)O | µM | 0.8 |
| COc1ccc2nccc(NC(=O)C3CCN(CCc4ccc(C(F)(F)F)cc4)CC3)c2n1 | µM | 1.6 |
| COc1c(N2C[C@@H]3CCCN[C@@H]3C2)c(F)cc2c(=O)c(C(=O)O)cn(C3CC3)c12 | µM | 3 |

All values here come from paper PMC8284461.
